# key: entry, value: OD450 after 4 days
Tested on: Rat bone marrow-derived stem cells (mesenchymal stem cells)
procedure.details: Evaluation of cell growth-promoting activity, WST-8 colorimetric method (Example 2)
Format: cell-based
settings: day 4; WST-8 absorbance at 450 nm; peptide approximately 2 μM, bFGF 10 ng/mL
No end group written: not given here.
Lab note: record the figure alone, no unit after it.

Solved cases (5 shown):
sequence.input: AAWTVRAGKKRTLRKNDRKKR (AAWTVRAGKKRTLRKNDRKKR-NH2) [compound 10]
recorded.metric: OD450 after 4 days
quantitative.result: 0.389
//
sequence.input: MLPSLALLGKKRTLRKNDRKKR (MLPSLALLGKKRTLRKNDRKKR-NH2) [compound 20]
recorded.metric: OD450 after 4 days
quantitative.result: 0.320
//
sequence.input: MLPSLALLLLAAWGKKRTLRKNDRKKR (MLPSLALLLLAAWGKKRTLRKNDRKKR-NH2) [compound 15]
recorded.metric: OD450 after 4 days
quantitative.result: 0.276
//
sequence.input: LLAAWTVRAGKKRTLRKNDRKKR (LLAAWTVRAGKKRTLRKNDRKKR-NH2) [compound 8]
recorded.metric: OD450 after 4 days
quantitative.result: 0.418
//
sequence.input: LLLAAWTVRAGKKRTLRKNDRKKR (LLLAAWTVRAGKKRTLRKNDRKKR-NH2) [compound 7]
recorded.metric: OD450 after 4 days
quantitative.result: 0.499

Query: Record request: OD450 after 4 days value, item SLALLLLAAWTVRAGKKRTLRKNDRKKR (SLALLLLAAWTVRAGKKRTLRKNDRKKR-NH2) [sample 3]
Reply: 0.293

Query: Reported OD450 after 4 days, sequence MLPSLALLLLAAWTVRAGKKRTLRKNDRKKR (MLPSLALLLLAAWTVRAGKKRTLRKNDRKKR-NH2) [sample 1] : ____
Reply: 0.243

Query: What value of OD450 after 4 days has been reported for the following sequence? MLPSLALLLLAGKKRTLRKNDRKKR (MLPSLALLLLAGKKRTLRKNDRKKR-NH2) [compound 17]
Reply: 0.468

###

Test system: Rat bone marrow-derived stem cells (mesenchymal stem cells)
procedure.details: Evaluation of cell growth-promoting activity, WST-8 colorimetric method (Example 2)
Type: cell-based
settings: day 4; WST-8 absorbance at 450 nm; peptide approximately 2 μM, bFGF 10 ng/mL
No end group written: not given here.
recorded.metric: OD450 after 4 days
Answer as a number with no unit attached.

Sample records with OD450 after 4 days:
sequence.input: MLPSLALGKKRTLRKNDRKKR (MLPSLALGKKRTLRKNDRKKR-NH2) [compound 21]
system.name: Rat bone marrow-derived stem cells (mesenchymal stem cells)
recorded.metric: OD450 after 4 days
quantitative.result: 0.332
--
sequence.input: MLPSLALLLLAAGKKRTLRKNDRKKR (MLPSLALLLLAAGKKRTLRKNDRKKR-NH2) [compound 16]
system.name: Rat bone marrow-derived stem cells (mesenchymal stem cells)
recorded.metric: OD450 after 4 days
quantitative.result: 0.525
--
sequence.input: MLPSLALLLLAAWTVGKKRTLRKNDRKKR (MLPSLALLLLAAWTVGKKRTLRKNDRKKR-NH2) [compound 13]
system.name: Rat bone marrow-derived stem cells (mesenchymal stem cells)
recorded.metric: OD450 after 4 days
quantitative.result: 0.232
--
sequence.input: MLPSLALLLLAAWTGKKRTLRKNDRKKR (MLPSLALLLLAAWTGKKRTLRKNDRKKR-NH2) [compound 14]
system.name: Rat bone marrow-derived stem cells (mesenchymal stem cells)
recorded.metric: OD450 after 4 days
quantitative.result: 0.293
--
sequence.input: AWTVRAGKKRTLRKNDRKKR (AWTVRAGKKRTLRKNDRKKR-NH2) [compound 11]
system.name: Rat bone marrow-derived stem cells (mesenchymal stem cells)
recorded.metric: OD450 after 4 days
quantitative.result: 0.403
--
sequence.input: ALLLLAAWTVRAGKKRTLRKNDRKKR (ALLLLAAWTVRAGKKRTLRKNDRKKR-NH2) [compound 5]
system.name: Rat bone marrow-derived stem cells (mesenchymal stem cells)
recorded.metric: OD450 after 4 days
quantitative.result: 0.483
--
sequence.input: MLPSLALLLGKKRTLRKNDRKKR (MLPSLALLLGKKRTLRKNDRKKR-NH2) [compound 19]
system.name: Rat bone marrow-derived stem cells (mesenchymal stem cells)
recorded.metric: OD450 after 4 days
quantitative.result: 0.478
--
sequence.input: MLPSLALLLLGKKRTLRKNDRKKR (MLPSLALLLLGKKRTLRKNDRKKR-NH2) [compound 18]
system.name: Rat bone marrow-derived stem cells (mesenchymal stem cells)
recorded.metric: OD450 after 4 days
quantitative.result: 0.505
--
sequence.input: LAAWTVRAGKKRTLRKNDRKKR (LAAWTVRAGKKRTLRKNDRKKR-NH2) [compound 9]
system.name: Rat bone marrow-derived stem cells (mesenchymal stem cells)
recorded.metric: OD450 after 4 days
quantitative.result: 0.398
--
sequence.input: WTVRAGKKRTLRKNDRKKR (WTVRAGKKRTLRKNDRKKR-NH2) [compound 12]
system.name: Rat bone marrow-derived stem cells (mesenchymal stem cells)
recorded.metric: OD450 after 4 days
quantitative.result: 0.388

Query: Endpoint output: OD450 after 4 days of LALLLLAAWTVRAGKKRTLRKNDRKKR (LALLLLAAWTVRAGKKRTLRKNDRKKR-NH2) [compound 4] . Value?
Reply: 0.304

Query: What OD450 after 4 days value was documented for this sequence, LLLLAAWTVRAGKKRTLRKNDRKKR (LLLLAAWTVRAGKKRTLRKNDRKKR-NH2) [compound 6] ?
Reply: 0.483

Query: I have this sequence here, PSLALLLLAAWTVRAGKKRTLRKNDRKKR (PSLALLLLAAWTVRAGKKRTLRKNDRKKR-NH2) [sample 2] , and I need its recorded OD450 after 4 days.
Reply: 0.297
